% repelled: recorded values
- System: adult lone star ticks, Amblyomma americanum
- Procedure Text: Tick repellency: vertical filter paper bioassay
- Format: in vivo
- Conditions Used: Conc. 2000 ug; ticks exposed 10-15 minutes after application
Observed Property: % repelled (%)

INSERT INTO assay_data (compound, assay_system, measured_number) VALUES
  ('CCCN1CC2CCC(C)(C1=O)C2(C)C (centres unmarked)', 'adult lone star ticks, Amblyomma americanum', 93.3),
  ('CCN(CC)C(=O)c1cccc(C)c1 [DEET, N,N-diethyl-m-toluamide, reference compound]', 'adult lone star ticks, Amblyomma americanum', 95.7),
  ('C=C1CN(CCC)C(=O)C2C(C)CCC12 (centres unmarked)', 'adult lone star ticks, Amblyomma americanum', 100),
  ('CC12CCC(CNC1=O)C2(C)C (centres unmarked)', 'adult lone star ticks, Amblyomma americanum', 73.3),
  ('CC(C)=CCCC(C)C1C=CC(=O)CC1 (centres unmarked)', 'adult lone star ticks, Amblyomma americanum', 82.5);

====

EC50: recorded values
- Test system: Aedes aegypti
- Procedure Text: Free choice assay against mosquitoes (feeding deterrence assay in glove box)
- Type: in vivo
- Conditions Used: median effective dose to repel 50% of mosquitoes; treated membrane over human blood, 20 min
Observed Property: EC50 (mg/cm^2)

INSERT INTO results (molecule, measured_number) VALUES
  ('C=C1CNC(=O)C2C(C)CCC12 (stereo not shown)', 0.0322),
  ('CCCN1CC2CCC(C)(C1=O)C2(C)C (stereo not shown)', 0.0282),
  ('C=C1CN(CCC)C(=O)C2C(C)CCC12 (stereo not shown)', 0.0317),
  ('CC12CCC(CNC1=O)C2(C)C (stereo not shown)', 0.0355);

====

- Tested on: Aedes aegypti
- Procedure Text: Free choice assay against mosquitoes (feeding deterrence assay in glove box)
- Assay type: in vivo
- Conditions Used: treated membrane over human blood, 20 min
EC95: recorded values
Observed Property: EC95 (mg/cm^2)

INSERT INTO results (molecule, observed_property, unit_of_measurement, measured_number) VALUES
  ('CCCN1CC2CCC(C)(C1=O)C2(C)C (stereo not shown)', 'EC95', 'mg/cm^2', 0.102),
  ('C=C1CNC(=O)C2C(C)CCC12 (stereo not shown)', 'EC95', 'mg/cm^2', 0.173),
  ('C=C1CN(CCC)C(=O)C2C(C)CCC12 (stereo not shown)', 'EC95', 'mg/cm^2', 0.117),
  ('CC12CCC(CNC1=O)C2(C)C (stereo not shown)', 'EC95', 'mg/cm^2', 0.166);
